For Acetylcholinesterase (Homo sapiens), measured pIC50 is reported for the entries below.
Notebook: values listed as pIC50 are -log10 of the concentration (mol/L).

Lookup result for `COc1cc2c(cc1OC)C(=O)/C(=C/c1cc[n+](Cc3ccccc3F)cc1)C2.[Br-]` ; measured pIC50: 9.10

Please fill in: pIC50 reported for `COc1cc2c(cc1OC)C(=O)/C(=C/c1cc[n+](Cc3ccccc3)cc1)C2` = 8.47

# pIC50 of `COc1cc2c(cc1OC)C(=O)/C(=C/c1cc[n+](Cc3ccc(Br)cc3)cc1)C2` = 7.16

The recorded pIC50 for entry `COc1cc2c(cc1OC)C(=O)/C(=C/c1cc[n+](Cc3ccccc3C)cc1)C2` equals 8.24

Item: `COc1cc2c(cc1OC)C(=O)/C(=C/c1cc[n+](Cc3ccccc3Br)cc1)C2` | pIC50: 8.42

Record summary for `COc1cc2c(cc1OC)C(=O)/C(=C/c1cc[n+](Cc3ccc(F)cc3)cc1)C2` : reported pIC50 = 8.39

pIC50 for `COc1cc2c(cc1OC)C(=O)/C(=C/c1cc[n+](Cc3cccc(Br)c3)cc1)C2` is 8.28

pIC50 in this record for `COc1cc2c(cc1OC)C(=O)/C(=C/c1cc[n+](Cc3ccc(C)cc3)cc1)C2` : 7.73

// field: pIC50; key: `COc1cc2c(cc1OC)C(=O)/C(=C/c1cc[n+](Cc3cccc(C)c3)cc1)C2` ; value = 8.40

###

# tgt: Acetylcholinesterase (Electrophorus electricus)
# Sequence (O42275 whole entry): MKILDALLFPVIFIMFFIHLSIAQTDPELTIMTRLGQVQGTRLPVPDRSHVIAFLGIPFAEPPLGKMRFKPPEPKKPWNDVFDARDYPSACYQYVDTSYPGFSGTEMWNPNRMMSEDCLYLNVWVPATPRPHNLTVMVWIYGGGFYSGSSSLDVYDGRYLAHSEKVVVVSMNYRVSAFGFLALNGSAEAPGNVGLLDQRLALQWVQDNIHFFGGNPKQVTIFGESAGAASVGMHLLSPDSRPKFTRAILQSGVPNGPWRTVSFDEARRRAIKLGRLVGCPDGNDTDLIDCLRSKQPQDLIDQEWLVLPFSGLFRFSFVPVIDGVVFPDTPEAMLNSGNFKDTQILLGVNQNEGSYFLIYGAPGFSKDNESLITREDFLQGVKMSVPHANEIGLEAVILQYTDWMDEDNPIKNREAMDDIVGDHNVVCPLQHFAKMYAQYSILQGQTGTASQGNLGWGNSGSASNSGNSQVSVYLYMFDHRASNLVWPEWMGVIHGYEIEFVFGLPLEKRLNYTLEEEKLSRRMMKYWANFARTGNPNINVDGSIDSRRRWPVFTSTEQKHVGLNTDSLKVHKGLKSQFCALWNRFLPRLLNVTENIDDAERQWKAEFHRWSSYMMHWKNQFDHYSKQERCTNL
Record form. Attribute: pIC50. Fill in for each entry.
Scale: pIC50 equals -log10([C]), with [C] in mol/L.

Note to self: pIC50 recorded for `COc1cc2c(cc1OC)C(=O)/C(=C/c1cc[n+](Cc3ccc(F)cc3)cc1)C2` was 8.34

The value of pIC50 measured for the compound `COc1cc2c(cc1OC)C(=O)/C(=C/c1cc[n+](Cc3ccc(Br)cc3)cc1)C2` turned out to be 7.11

For record `COc1cc2c(cc1OC)C(=O)/C(=C/c1cc[n+](Cc3cccc(Br)c3)cc1)C2` the listed pIC50 is 8.36

So for `COc1cc2c(cc1OC)C(=O)/C(=C/c1cc[n+](Cc3cccc(C)c3)cc1)C2` , the logged pIC50 turned out to be 8.38

Measured pIC50, `COc1cc2c(cc1OC)C(=O)/C(=C/c1cc[n+](Cc3cccc(F)c3)cc1)C2` : 8.47

###

# tgt: Amyloid-beta precursor protein (Homo sapiens) (UniProt P05067)
# Sequence (P05067 whole entry): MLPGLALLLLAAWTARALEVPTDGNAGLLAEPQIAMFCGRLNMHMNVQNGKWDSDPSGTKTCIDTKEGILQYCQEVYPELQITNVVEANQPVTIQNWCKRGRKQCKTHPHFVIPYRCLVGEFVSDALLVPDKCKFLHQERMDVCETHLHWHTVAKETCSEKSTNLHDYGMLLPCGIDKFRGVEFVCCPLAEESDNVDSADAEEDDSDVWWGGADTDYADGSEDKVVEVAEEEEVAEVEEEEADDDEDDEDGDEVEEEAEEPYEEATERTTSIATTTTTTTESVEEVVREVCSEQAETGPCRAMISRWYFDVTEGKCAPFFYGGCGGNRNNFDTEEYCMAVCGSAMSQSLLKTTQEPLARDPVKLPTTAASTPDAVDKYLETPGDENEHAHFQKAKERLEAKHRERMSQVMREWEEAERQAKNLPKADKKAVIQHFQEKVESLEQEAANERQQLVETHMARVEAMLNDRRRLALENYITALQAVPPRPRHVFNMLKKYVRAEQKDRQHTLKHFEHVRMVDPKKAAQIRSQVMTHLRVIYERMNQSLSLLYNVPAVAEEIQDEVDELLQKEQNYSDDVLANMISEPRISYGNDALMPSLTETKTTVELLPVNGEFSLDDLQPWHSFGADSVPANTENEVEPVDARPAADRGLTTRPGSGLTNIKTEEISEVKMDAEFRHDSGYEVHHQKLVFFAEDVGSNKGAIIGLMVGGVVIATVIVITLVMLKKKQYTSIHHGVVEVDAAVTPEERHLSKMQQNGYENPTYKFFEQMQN
# assay-summary: Inhibition of HFIP-pretreated amyloid beta (1 to 42) (unknown origin) self-induced aggregation at 20 uM incubated for 46 to 48 hrs by thioflavin-T fluorescence assay relative to control
Label rule, in plain words: inhibition of 50% and up is 1, under 50% is -1.

Query: In plain terms: is recorded inhibition at least 50% for `COc1cc2c(cc1OC)C(=O)/C(=C/c1cc[n+](Cc3ccccc3)cc1)C2` ?
Reply: -1

Query: Does `COc1cc2c(cc1OC)C(=O)/C(=C/c1cc[n+](Cc3ccc(F)cc3)cc1)C2` have a reported inhibition of at least 50%?
Reply: -1

Query: Can `COc1cc2c(cc1OC)C(=O)/C(=C/c1cc[n+](Cc3ccccc3F)cc1)C2.[Br-]` be said to have inhibition at or above 50%?
Reply: 1

Query: API: above_or_equal(metric=inhibition, cutoff=50%) for item `COc1cc2c(cc1OC)C(=O)/C(=C/c1cc[n+](Cc3cccc(F)c3)cc1)C2`
Reply: -1

Query: Is it the case that `COc1cc2c(cc1OC)C(=O)/C(=C/c1cc[n+](Cc3ccccc3Br)cc1)C2` has inhibition reaching or exceeding 50%?
Reply: 1

###

# tgt: UniProt:O42275
Criterion: IC50 strictly under 30 nM. Met: yes (1). Not met: no (0).

Query: API: query returns whether the molecule falls strictly under 30 nM in IC50. Query: `COc1cc2c(cc1OC)C(=O)/C(=C/c1cc[n+](Cc3ccc([N+](=O)[O-])cc3)cc1)C2`
Reply: no (0)

Query: IC50 strictly < 30 nM for this molecule? `COc1cc2c(cc1OC)C(=O)/C(=C/c1cc[n+](Cc3ccccc3)cc1)C2`
Reply: yes (1)

Query: Record `COc1cc2c(cc1OC)C(=O)/C(=C/c1cc[n+](Cc3ccccc3C)cc1)C2` : is its IC50 strictly below 30 nM?
Reply: yes (1)

Query: For `COc1cc2c(cc1OC)C(=O)/C(=C/c1cc[n+](Cc3ccc(C)cc3)cc1)C2` , is the recorded IC50 below the cut-off of 30 nM?
Reply: yes (1)

Query: Take the molecule `COc1cc2c(cc1OC)C(=O)/C(=C/c1cc[n+](Cc3ccccc3Br)cc1)C2` and say whether its IC50 is less than 30 nM.
Reply: yes (1)

Query: Hello, I'm reviewing records and need to know if IC50 of `COc1cc2c(cc1OC)C(=O)/C(=C/c1cc[n+](Cc3cccc([N+](=O)[O-])c3)cc1)C2` is below 30 nM. Could you check?
Reply: yes (1)

###

# tgt: Amyloid-beta precursor protein (Homo sapiens)
# assay-summary: Inhibition of HFIP-pretreated amyloid beta (1 to 42) (unknown origin) self-induced aggregation at 20 uM incubated for 46 to 48 hrs by thioflavin-T fluorescence assay relative to control
I'd appreciate it if you could supply inhibition values for the items below.
Report only the number, with the unit % understood.

Just so you know, measured inhibition for `COc1cc2c(cc1OC)C(=O)/C(=C/c1cc[n+](Cc3ccc(C)cc3)cc1)C2` came out at 49.9

Recorded result, `COc1cc2c(cc1OC)C(=O)/C(=C/c1cc[n+](Cc3cccc(Br)c3)cc1)C2` , inhibition: 53.4

For `COc1cc2c(cc1OC)C(=O)/C(=C/c1cc[n+](Cc3ccccc3C)cc1)C2` the compound record lists inhibition as 38.7

Looking up `COc1cc2c(cc1OC)C(=O)/C(=C/c1cc[n+](Cc3cccc(C)c3)cc1)C2` , I see its inhibition listed as 42.6

# compound `COc1cc2c(cc1OC)C(=O)/C(=C/c1cc[n+](Cc3ccc([N+](=O)[O-])cc3)cc1)C2` ; its inhibition = 47.2

###

Record form. Attribute: Papp at 16 h. Fill in for each entry.
# assay-summary: physchem
# condition-set: PAMPA
# Description: Permeability of the compound at 200 uL after 16 hrs by PAMPA-BBB assay
# unit: ×10⁻⁶ cm/s | format: bare number

Papp at 16 h in this record for `COc1cc2c(cc1OC)C(=O)/C(=C/c1cc[n+](Cc3ccccc3F)cc1)C2.[Br-]` : 4.97

Notebook: `C[C@]12CC[C@@H]3c4ccc(O)cc4CC[C@H]3[C@@H]1CC[C@@H]2O` , Papp at 16 h read as 11.3
